Origin of the recorded values: patent US6683095B2

Can you tell me pIC50 for the items I'm about to list?
- measured.target: CDK4/cyclin D1 (Homo sapiens)
- Construct: GST
- Sequence (P11802 whole entry): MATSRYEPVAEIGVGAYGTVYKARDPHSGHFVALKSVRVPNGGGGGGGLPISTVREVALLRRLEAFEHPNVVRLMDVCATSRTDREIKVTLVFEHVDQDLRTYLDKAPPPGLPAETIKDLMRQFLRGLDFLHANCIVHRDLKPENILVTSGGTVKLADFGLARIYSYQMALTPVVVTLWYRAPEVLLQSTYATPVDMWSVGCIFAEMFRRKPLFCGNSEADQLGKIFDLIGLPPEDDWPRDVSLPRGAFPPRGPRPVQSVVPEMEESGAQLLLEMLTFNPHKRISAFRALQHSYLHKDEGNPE
- Sequence (P24385 whole entry partner): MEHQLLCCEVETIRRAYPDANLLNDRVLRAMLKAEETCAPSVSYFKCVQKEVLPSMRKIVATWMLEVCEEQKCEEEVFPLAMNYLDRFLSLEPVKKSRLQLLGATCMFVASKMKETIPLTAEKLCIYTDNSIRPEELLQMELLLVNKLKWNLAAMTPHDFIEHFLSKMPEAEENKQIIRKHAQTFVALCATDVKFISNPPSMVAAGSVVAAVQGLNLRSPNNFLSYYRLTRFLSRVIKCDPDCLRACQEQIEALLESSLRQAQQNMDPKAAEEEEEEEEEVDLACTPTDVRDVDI
- protocol.description: Inhibitory activity against CDK4 (CDK4/cyclin D1 kinase assay, GST-Rb substrate, 32P-ATP)
- test.settings: 100 μM ATP, 30° C., 30 minutes
- Protocol: The activities of CDK2/cyclin A and CDK4/cyclin D1 were determined as follows. […] To analyze the inhibitory activity of the compound, the inhibitor having a proper concentration was added to the enzyme reaction solution, and then the enzyme activity was measured according to the above method.
For clarity, pIC50 is expressed as the negative log10 of concentration in mol/L.

Consider CC(=O)Nc1cc(-c2oc3ccc(C)cc3c(=O)c2O)ccc1O . Its measured pIC50 is 5.00

Consider Cc1cc(N2CCCS2(=O)=O)c2oc(-c3ccc(F)c(Cl)c3)c(O)c(=O)c2c1 . Its measured pIC50 is 4.62

Consider Cc1cc(N)c2oc(-c3ccc(O)cc3)c(O)c(=O)c2c1 . Its measured pIC50 is 5.68

Consider Cc1cc(N)c2oc(-c3cccc(O)c3)c(O)c(=O)c2c1 . Its measured pIC50 is 5.68

Consider Cc1ccc2oc(-c3ccc(O)c(O)c3Br)c(O)c(=O)c2c1 . Its measured pIC50 is 4.96

Consider CC(=O)Nc1cc(C)cc2c(=O)c(O)c(-c3ccc(O)c([N+](=O)[O-])c3)oc12 . Its measured pIC50 is 5.41

Consider Cc1cc(N)c2oc(-c3ccc(O)c(F)c3)c(O)c(=O)c2c1 . Its measured pIC50 is 4.80

Consider Cc1cc(N)c2oc(-c3ccc(N)cc3)c(O)c(=O)c2c1 . Its measured pIC50 is 4.30
